This collection of values is drawn from patent US20230183322A1.

Would you kindly list Kd for each of these binders?
Target: biotin-labeled SARS-COV-2 RBD domain (SARS-CoV-2, UniProt P0DTC2 319-541)
Test: SPR, Biacore T200, biotin-RBD on SA chip, antibody as analyte

Req: I'd like to know its Kd. The binder in question is ABU-375 (antibody, V domains shown) VH: EVQLVESGGGLVQPGGSLRLSCAASGLTVSSNYMSWVRQAPGKGLEWVSVIYSGGSTFYADSVKGRFTISRDNSKNTLYLQMNSVRAEDTAVYYCARLPYGMDVWGQGTTVTVSS VL: DIQMTQSPSSLSASVGDRVTITCQASQDVSKYLNWYQQKPGKAPKLLIHDASNLQTGVPSRFSGGGSGTDFTFTISSLQPEDIATYYCQQYDNLPVTFGGGTKVEIK
Resp: < 10 nM

Req: Record: ABU-289 (antibody, V domains shown) VH: QVQLVQSGAEVKKPGSSVKVSCKASGGTFSSYTISWVRQAPGQGLEWMGRIIPILGIANYAQKFQGRVTITADKSTSTAYMELSSLRSEDTAVYYCARGIVGATPGYFDYWGQGTLVTVSS VL: EIVMTQSPATLSVSPGERATLSCRASQSVSSNLAWYQQKPGQAPRLLIYGASTRATGIPARFSGSGSGTEFTLTISSLQSEDFAVYYCQQYNNWLTFGGGTKVEIK
Resp: < 10 nM

Req: Can you check ABU-360 (antibody, V domains shown) VH: EVQLVESGGGLVQPGGSLRLSCAASEFIVSRNYMSWVRQAPGKGLEWVSVIYSGGSTFYADSVKGRFTISRDNSKNTLYLQMNSLRAEDTGVYYCARDRGLVSDYWGQGTLVTVSS VL: DIQMTQSPSSLSASVGDRVTITCQASQDINKYLNWYQQKPGKAPKLLIFDASHLETGVPSRFSASGSGTDFTFTISSLQPEDIATYYCHQYDNLPRTFGQGTRLEIK next?
Resp: < 1 nM

Req: // repeat for ABU-145 (antibody, V domains shown) VH: QVQLQESGPGLVKPSQTLSVTCTVSGGSINRDGHYWIWIRQHPEKGLEWLGYIYSGRNTFYNPSLRSRLSISADTSKSQFSLNLHSVTAADTAVYYCAKMYSDYDDNYYGLDVWGRGTTVTVSS VL: EIVLTQSPGTLSLSPGERATLSCRASHTISSSYLAWYQQKAGQAPRLLIYAASSRATGIPARFSGSGSGTDFTLTISRLEPEDFAVYYCQQFDNSPPWTFGRGTKVEMR and report
Resp: < 10 nM

Req: Same question for ABU-312 (antibody, V domains shown) VH: EVQLLESGGGLVQPGGSLRLSCAASGFTFSTYAMSWVRQAPGKGLEWVSVISGSGGSTYYADSVKGRFTISRDNSKNTLYLQMNSLRAEDTAVYYCAKEYYYDSSGYYYREDAFDIWGQGTMVTVSS VL: DIQMTQSPSAMSASVGDRVTITCRASQGISNYLAWFQQKPGKVPKRLIYAASSLQSGVPSRFSGSGSGTEFTLTISSLQPEDFATYYCLQHNSYPRTFGQGTKVEIK please.
Resp: < 20 nM
